Test system: HCC78
Test: Antiproliferative activity against human HCC78 cells after 48 hrs by MTT assay
Settings: HCC78, 48 h
endpoint: IC50 (µM)

Before answering, review these 5 worked examples.
compound	units-symbol	IC50
Cc1ccc(CNC(=O)c2cccc(C(C)Oc3ccnc(Nc4cnn(CC(C)(C)O)c4)c3)c2)cc1 (configuration not stated)	µM	49.7
COc1cc(CNC(=O)c2cccc(C(C)Oc3ccnc(Nc4cnn(C)c4)c3)c2)cc(OC)c1OC (configuration not stated)	µM	73.9
CC(Oc1cccnc1Nc1cnn(C)c1)c1cccc(C(=O)NCc2ccc(Cl)c(C(F)(F)F)c2)c1 (configuration not stated)	µM	48.6
Cc1ccc(CNC(=O)c2cccc(C(C)Oc3ccnc(NN4CCN(C)CC4)c3)c2)cc1 (configuration not stated)	µM	26.2
Cc1ccc(CNC(=O)c2cccc(C(C)Oc3ccnc(NN4CCOCC4)c3)c2)cc1 (configuration not stated)	µM	68.3

1: Cc1ccc(CNC(=O)c2cccc(C(C)Oc3ccnc(Nc4cnn(C)c4)c3)c2)cc1 (configuration not stated)
2: CC(Oc1cccnc1Nc1cnn(C)c1)c1cccc(C(=O)NCc2ccccc2S(=O)(=O)C(C)C)c1 (configuration not stated)
3: Cc1ccc(CNC(=O)c2cccc(C(C)Oc3cccnc3Nc3ncc(C)s3)c2)cc1 (configuration not stated)
4: C[C@@H](Oc1cc(-c2cnn(C3CCNCC3)c2)cnc1N)c1c(Cl)ccc(F)c1Cl [CRIZOTINIB]
**Q:** // ascending sort on recorded IC50 Reply with the labels, ordered as the question asks.
**A:** 4, 1, 3, 2
(4: 2 µM, 1: 8.9 µM, 3: 14.8 µM, 2: 63.1 µM)

P: CC(Oc1ccnc(Nc2cnn(C)c2)c1)c1cccc(C(=O)NCc2cc(C(F)(F)F)cc(C(F)(F)F)c2)c1 (configuration not stated)
Q: Cc1ccc(CNC(=O)c2cccc(C(C)Oc3cccnc3Nc3cnn(CC(C)(C)O)c3)c2)cc1 (configuration not stated)
R: COc1ccc(CNC(=O)c2cccc(C(C)Oc3ccnc(Nc4cnn(C5CCNCC5)c4)c3)c2)cc1OC (configuration not stated)
S: Cc1cnc(Nc2ncccc2OC(C)c2cccc(C(=O)NCc3ccc(F)c(Cl)c3)c2)s1 (configuration not stated)
**Q:** Hey, quick one: sort these by IC50, largest value first please. Give the labels in the order requested.
**A:** R, S, Q, P

1: COc1cc(Nc2cc(OC(C)c3cccc(C(=O)NCc4ccc(C)cc4)c3)ccn2)cc(OC)c1OC (configuration not stated)
2: CC(Oc1ccnc(NN2CCN(C)CC2)c1)c1cccc(C(=O)NCc2ccc(Cl)c(C(F)(F)F)c2)c1 (configuration not stated)
3: COc1cccc(CNC(=O)c2cccc(C(C)Oc3cccnc3Nc3cnn(C)c3)c2)c1 (configuration not stated)
**Q:** Would you mind ranking these compounds by ascending IC50? Write the labels out in the order the request specifies.
**A:** 1, 2, 3

###

Biological target: Proto-oncogene tyrosine-protein kinase ROS (Homo sapiens, UniProt P08922)
Sequence (P08922 whole entry): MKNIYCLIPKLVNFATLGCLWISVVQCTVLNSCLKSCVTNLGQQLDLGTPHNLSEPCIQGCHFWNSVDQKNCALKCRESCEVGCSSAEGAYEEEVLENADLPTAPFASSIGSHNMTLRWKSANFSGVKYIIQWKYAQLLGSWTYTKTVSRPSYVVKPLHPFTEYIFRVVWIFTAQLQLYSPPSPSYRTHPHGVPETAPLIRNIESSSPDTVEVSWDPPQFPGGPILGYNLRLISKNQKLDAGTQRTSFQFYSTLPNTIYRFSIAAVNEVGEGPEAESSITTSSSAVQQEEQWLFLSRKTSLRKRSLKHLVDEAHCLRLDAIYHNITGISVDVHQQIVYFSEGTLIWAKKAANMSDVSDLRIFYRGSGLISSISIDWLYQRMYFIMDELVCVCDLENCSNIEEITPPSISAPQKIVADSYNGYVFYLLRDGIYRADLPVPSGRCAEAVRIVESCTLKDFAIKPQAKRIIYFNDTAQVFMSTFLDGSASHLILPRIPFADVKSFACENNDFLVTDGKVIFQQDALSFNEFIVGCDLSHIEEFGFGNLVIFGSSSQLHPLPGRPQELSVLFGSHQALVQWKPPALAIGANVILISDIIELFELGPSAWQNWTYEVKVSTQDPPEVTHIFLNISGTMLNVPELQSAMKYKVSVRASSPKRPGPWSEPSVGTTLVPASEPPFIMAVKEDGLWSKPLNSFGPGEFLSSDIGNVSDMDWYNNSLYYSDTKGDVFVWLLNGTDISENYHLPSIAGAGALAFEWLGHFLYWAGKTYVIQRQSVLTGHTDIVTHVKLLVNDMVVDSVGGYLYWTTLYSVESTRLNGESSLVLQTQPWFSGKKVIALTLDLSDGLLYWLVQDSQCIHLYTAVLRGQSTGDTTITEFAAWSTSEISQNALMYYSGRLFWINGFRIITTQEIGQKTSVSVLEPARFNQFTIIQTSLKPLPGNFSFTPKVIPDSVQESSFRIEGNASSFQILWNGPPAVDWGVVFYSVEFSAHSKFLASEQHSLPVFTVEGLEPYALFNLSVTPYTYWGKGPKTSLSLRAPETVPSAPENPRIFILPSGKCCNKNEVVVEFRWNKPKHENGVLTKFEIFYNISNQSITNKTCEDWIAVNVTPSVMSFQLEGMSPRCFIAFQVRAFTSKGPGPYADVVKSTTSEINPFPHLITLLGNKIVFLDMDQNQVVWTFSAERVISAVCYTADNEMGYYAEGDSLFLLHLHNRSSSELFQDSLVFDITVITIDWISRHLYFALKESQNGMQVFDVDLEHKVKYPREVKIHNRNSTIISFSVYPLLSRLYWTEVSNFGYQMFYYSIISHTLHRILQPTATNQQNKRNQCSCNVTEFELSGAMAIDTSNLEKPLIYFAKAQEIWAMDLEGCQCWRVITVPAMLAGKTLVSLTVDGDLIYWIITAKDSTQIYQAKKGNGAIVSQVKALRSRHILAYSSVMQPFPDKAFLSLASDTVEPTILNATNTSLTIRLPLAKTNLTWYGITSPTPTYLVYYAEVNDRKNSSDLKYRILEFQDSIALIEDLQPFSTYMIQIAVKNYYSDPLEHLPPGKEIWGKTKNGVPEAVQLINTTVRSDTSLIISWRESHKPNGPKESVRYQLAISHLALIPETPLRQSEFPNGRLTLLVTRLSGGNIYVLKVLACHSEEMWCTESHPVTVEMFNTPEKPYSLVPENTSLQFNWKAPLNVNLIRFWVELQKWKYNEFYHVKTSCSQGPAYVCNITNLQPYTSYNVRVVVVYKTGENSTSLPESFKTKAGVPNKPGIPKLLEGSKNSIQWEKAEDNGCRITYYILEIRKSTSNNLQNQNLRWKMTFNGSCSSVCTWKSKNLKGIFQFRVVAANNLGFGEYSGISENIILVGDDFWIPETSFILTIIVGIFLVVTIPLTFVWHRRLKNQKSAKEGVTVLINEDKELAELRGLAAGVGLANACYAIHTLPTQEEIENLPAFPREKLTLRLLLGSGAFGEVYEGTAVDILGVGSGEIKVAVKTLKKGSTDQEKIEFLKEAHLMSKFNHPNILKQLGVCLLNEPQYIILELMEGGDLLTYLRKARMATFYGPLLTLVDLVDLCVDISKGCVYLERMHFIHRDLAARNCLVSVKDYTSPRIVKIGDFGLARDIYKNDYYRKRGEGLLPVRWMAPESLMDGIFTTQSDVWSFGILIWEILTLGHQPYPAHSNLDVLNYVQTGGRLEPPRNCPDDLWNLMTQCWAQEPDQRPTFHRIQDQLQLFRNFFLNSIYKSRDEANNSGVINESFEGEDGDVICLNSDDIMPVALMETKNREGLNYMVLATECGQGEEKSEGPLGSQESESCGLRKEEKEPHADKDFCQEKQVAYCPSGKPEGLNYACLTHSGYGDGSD
Assay: Inhibition of recombinant human GST-tagged ROS1 expressed in baculovirus expression system by Z'LYTE assay
endpoint: IC50 (µM)

Some solved cases for reference:
compound	IC50 / µM
Cc1ccc(CNC(=O)c2cccc(C(C)Oc3cccnc3Nc3cnn(CC(C)(C)O)c3)c2)cc1 (stereo not given)	9.4
Cc1ccc(CNC(=O)c2cccc(C(C)Oc3ccnc(Nc4cnn(CC(C)(C)O)c4)c3)c2)cc1 (stereo not given)	2.4
COc1cccc(CNC(=O)c2cccc(C(C)Oc3ccnc(Nc4cnn(C)c4)c3)c2)c1 (stereo not given)	1.8
COc1cc(CNC(=O)c2cccc(C(C)Oc3ccnc(Nc4cnn(C)c4)c3)c2)cc(OC)c1OC (stereo not given)	0.41
Cc1ccc(CNC(=O)c2cccc(C(C)Oc3cccnc3Nc3ncccn3)c2)cc1 (stereo not given)	6.2

1: Cc1ccc(CNC(=O)c2cccc(C(C)Oc3ccnc(Nc4cn(C)nc4C)c3)c2)cc1 (stereo not given)
2: CC(Oc1ccnc(Nc2cnn(C)c2)c1)c1cccc(C(=O)NCc2cc(F)cc(F)c2)c1 (stereo not given)
**Q:** Which of the two gives a bigger number for IC50: 1 or 2 ? Could you answer with the label of the item you picked?
**A:** 2
(2: 2.4 µM, 1: 1.4 µM)

1: CC(Oc1ccnc(Nc2cnn(C)c2)c1)c1cccc(C(=O)NCc2ccc(C#N)cc2)c1 (stereo not given)
2: Cc1ccc(CNC(=O)c2cccc(C(C)Oc3ccnc(Nc4cnn(C5CCN(C)CC5)c4)c3)c2)cc1 (stereo not given)
**Q:** Please let me know which one, 1 or 2 , has a lower measured IC50 value. Reply with the label of the item you choose.
**A:** 2

A: CC(Oc1cccnc1Nc1cnn(C)c1)c1cccc(C(=O)NCc2ccc(Cl)c(C(F)(F)F)c2)c1 (stereo not given)
B: Cc1ccc(CNC(=O)c2cccc(C(C)Oc3ccnc(Nc4cnn(C)c4)c3)c2)cc1 (stereo not given)
C: Cc1cnc(Nc2ncccc2OC(C)c2cccc(C(=O)NCc3ccc(F)c(Cl)c3)c2)s1 (stereo not given)
**Q:** Hey, can you sort those compounds up there by IC50, smallest first? Answer format: the labels, ordered as requested.
**A:** B, A, C
(B: 1.8 µM, A: 6.3 µM, C: 9.6 µM)

a: Cc1ccc(CNC(=O)c2cccc(C(C)Oc3cccnc3Nc3cnn(CC#N)c3)c2)cc1 (stereo not given)
b: COc1ccc(CNC(=O)c2cccc(C(C)Oc3ccnc(Nc4cnn(C)c4)c3)c2)cc1OC (stereo not given)
c: COc1ccc(CNC(=O)c2cccc(C(C)Oc3ccnc(Nc4ncccn4)c3)c2)cc1OC (stereo not given)
**Q:** Arrange these compounds by their IC50, starting with the largest number. Your answer should be the labels, listed in the requested order.
**A:** a, b, c
(a: 8.7 µM, b: 0.64 µM, c: 0.44 µM)
